Cited source: patent US20210238298A1

assayTarget: CD137 on primary human CD8+ T cells (human, UniProt Q07011 24-255)
Sequence (Q07011 24-255 limits assumed): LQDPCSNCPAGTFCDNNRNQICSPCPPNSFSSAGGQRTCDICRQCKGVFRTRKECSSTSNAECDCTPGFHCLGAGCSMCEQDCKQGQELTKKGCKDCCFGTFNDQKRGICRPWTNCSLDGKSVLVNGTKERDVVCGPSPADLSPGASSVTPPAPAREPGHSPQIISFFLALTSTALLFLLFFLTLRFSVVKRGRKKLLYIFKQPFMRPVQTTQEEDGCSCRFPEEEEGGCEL
protocolDescription: cell-based or functional assay
# if value of Mean IFN-γ reaches 50000 pg/mL, tag rule met; if it stays below, tag rule not met

[
  {
    "binder": "anti-CD137 antibody 1204/1205 (antibody, IgG1, V domains shown, Produced as IgG; also called 1204-bio) VH: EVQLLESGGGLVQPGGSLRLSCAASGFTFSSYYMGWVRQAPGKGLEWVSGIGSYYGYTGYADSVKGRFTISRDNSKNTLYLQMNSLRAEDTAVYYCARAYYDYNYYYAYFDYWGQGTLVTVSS VL: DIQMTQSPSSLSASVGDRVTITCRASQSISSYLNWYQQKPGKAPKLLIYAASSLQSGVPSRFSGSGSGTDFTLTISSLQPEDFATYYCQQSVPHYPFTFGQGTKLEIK",
    "classification": "rule met"
  },
  {
    "binder": "anti-CD137 antibody 1618/1619 (antibody, IgG1, V domains shown, Produced as IgG; also called 1618-bio) VH: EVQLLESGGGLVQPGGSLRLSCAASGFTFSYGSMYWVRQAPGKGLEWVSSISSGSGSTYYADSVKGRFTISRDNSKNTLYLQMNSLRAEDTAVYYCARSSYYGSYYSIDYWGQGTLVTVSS VL: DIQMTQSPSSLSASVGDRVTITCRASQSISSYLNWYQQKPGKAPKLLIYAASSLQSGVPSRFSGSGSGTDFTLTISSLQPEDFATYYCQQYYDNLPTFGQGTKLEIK",
    "classification": "rule not met"
  },
  {
    "binder": "anti-CD137 antibody 1620/1621 (antibody, IgG1, V domains shown, Produced as IgG) VH: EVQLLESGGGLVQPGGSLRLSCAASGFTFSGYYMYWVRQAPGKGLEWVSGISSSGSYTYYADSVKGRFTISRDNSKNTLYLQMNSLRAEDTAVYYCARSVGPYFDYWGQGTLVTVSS VL: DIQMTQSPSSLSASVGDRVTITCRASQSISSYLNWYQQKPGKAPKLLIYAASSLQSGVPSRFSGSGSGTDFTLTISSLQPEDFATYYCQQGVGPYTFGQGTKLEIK",
    "classification": "rule met"
  },
  {
    "binder": "anti-CD137 antibody 1214/1215 (antibody, IgG1, V domains shown, Produced as IgG; also called 1214-bio) VH: EVQLLESGGGLVQPGGSLRLSCAASGFTFSSYAMSWVRQAPGKGLEWVSSIGSGGGYTGYADSVKGRFTISRDNSKNTLYLQMNSLRAEDTAVYYCARVGHPFDYWGQGTLVTVSS VL: DIQMTQSPSSLSASVGDRVTITCRASQSISSYLNWYQQKPGKAPKLLIYAASSLQSGVPSRFSGSGSGTDFTLTISSLQPEDFATYYCQQDAYPHTFGQGTKLEIK",
    "classification": "rule met"
  }
]

API: the following record is the query input.
INPUT: Item anti-CD137 antibody 1626/1627 (antibody, IgG1, V domains shown, Produced as IgG; also called 1626-bio) VH: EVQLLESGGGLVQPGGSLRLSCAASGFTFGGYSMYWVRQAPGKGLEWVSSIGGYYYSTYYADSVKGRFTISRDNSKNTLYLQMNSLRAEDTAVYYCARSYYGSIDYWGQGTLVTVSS VL: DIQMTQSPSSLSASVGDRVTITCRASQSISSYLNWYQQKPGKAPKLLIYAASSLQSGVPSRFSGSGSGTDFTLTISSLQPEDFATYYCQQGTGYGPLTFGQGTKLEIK with Mean IFN-γ of 50000 pg/mL or above?
OUTPUT: rule not met
